Each entry below lists one item and its recorded pKd value.
Target: 15N-labelled NDM-1 (Klebsiella pneumoniae, UniProt C7C422)
Construct: made in house
Sequence (C7C422 29-270 limits assumed): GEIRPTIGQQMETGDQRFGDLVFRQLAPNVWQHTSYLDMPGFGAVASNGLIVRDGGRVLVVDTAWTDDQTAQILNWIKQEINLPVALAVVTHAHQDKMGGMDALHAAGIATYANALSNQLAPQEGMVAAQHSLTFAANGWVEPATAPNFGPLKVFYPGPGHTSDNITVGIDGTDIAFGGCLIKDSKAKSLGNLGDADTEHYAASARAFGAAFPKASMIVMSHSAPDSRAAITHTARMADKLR
Test: 1H,15N HSQC NMR chemical shift perturbation titration, NDM-1
Assay type: binding
Settings: Estimated binding constant (Kd), residue 205F, Table S5; per-residue fit, NDM-1 205F
Reminder that pKd means the negative base-10 logarithm of the concentration expressed in mol/L.

# molecule, target_or_test_system, pKd
records = [
    ("O=C(Cc1cccs1)NC(C1CCCCN1)P(=O)(O)O (centres unmarked) [Compound 5i-1]", "15N-labelled NDM-1 (Klebsiella pneumoniae, UniProt C7C422)", 2.64),
    ("O=C(Cc1ccsc1)NC(C1CCCCN1)P(=O)(O)O (centres unmarked)", "15N-labelled NDM-1 (Klebsiella pneumoniae, UniProt C7C422)", 2.08),
    ("O=C(Cc1cccs1)NC(C1CCCCN1)P(=O)(O)O (centres unmarked) [Compound 5i-2]", "15N-labelled NDM-1 (Klebsiella pneumoniae, UniProt C7C422)", 2.16),
]

In: Data request, read-out pKd, for O=C(NC(C1CCCCN1)P(=O)(O)O)c1cccs1 (centres unmarked)
Out: 1.96

In: Data request, read-out pKd, for O=C(NC(C1CCCCN1)P(=O)(O)O)c1ccsc1 (centres unmarked)
Out: 2.50

Source listed as paper PMC10650955.
